Reference for the values: paper PMC12698583

test.method.notes: Metabolic stability in rat liver microsomes
Format: in vitro ADME
condition.info: Sprague-Dawley, pH 7.4; rat liver microsomes, 1 μM, 0.25 mg/mL; read-out: T1/2 rat
metric: half-life at 1 μM

- structure: "CC(C)Oc1ccc(NS(=O)(=O)c2cccc(NC(=O)c3cnccn3)c2)cc1"
  half-life at 1 μM: "9 min"

Next, consider the following compound.
Would you kindly share the measured half-life at 1 μM for "COc1ccc(NS(=O)(=O)c2cccc(NC(=O)c3cnccn3)c2)cc1" ?
10 min

---

test.method.notes: Metabolic stability in human liver microsomes
Format: in vitro ADME
condition.info: pooled liver microsomes, pH 7.4; human liver microsomes; read-out: CL int. mic.
Reported microsomal CLint at 1 μM by item:
Quick note: number first, unit second.

- structure: "COc1ccc(NS(=O)(=O)c2cccc(NC(=O)c3cnccn3)c2)cc1"
  metric: "microsomal CLint at 1 μM"
  val: "78 µL/min/mg"

Next, consider the following compound.
Would you kindly share the measured microsomal CLint at 1 μM for "CC(C)Oc1ccc(NS(=O)(=O)c2cccc(NC(=O)c3cnccn3)c2)cc1" ?
97 µL/min/mg

---

test.method.notes: Metabolic stability in rat liver microsomes
Format: in vitro ADME
condition.info: Sprague-Dawley, pH 7.4; rat liver microsomes; read-out: CL int. mic.
Reported microsomal CLint at 1 μM by item:
Give the value, in units of µL/min/mg, as a plain number.

- compound: "COc1ccc(NS(=O)(=O)c2cccc(NC(=O)c3cnccn3)c2)cc1 [AC-R008]"
  val: 55

Next, consider the following compound.
Would you kindly share the measured microsomal CLint at 1 μM for CC(C)Oc1ccc(NS(=O)(=O)c2cccc(NC(=O)c3cnccn3)c2)cc1 [AC-M110] ?
61

---

test.method.notes: Metabolic stability in mouse liver microsomes
Assay type: in vitro ADME
condition.info: CD-1, mouse, liver microsomes, pH 7.4, mouse liver microsomes; read-out: CL int. mic.
metric: microsomal CLint at 1 μM (µL/min/mg)
Give the value, in units of µL/min/mg, as a plain number.

Would you kindly share the measured microsomal CLint at 1 μM for "CC(C)Oc1ccc(NS(=O)(=O)c2cccc(NC(=O)c3cnccn3)c2)cc1" ?
339

---

test.method.notes: in vitro
Type: in vitro ADME
condition.info: PAMPA, pH 5.5, PAMPA pH 5,5 Papp - lower
Reported Papp at 5 h, 100 μM by item:
Give the value, in units of ×10⁻⁶ cm/s, as a plain number.

- compound: "COc1ccc(NS(=O)(=O)c2cccc(NC(=O)c3cnccn3)c2)cc1 [AC-R008]"
  Papp at 5 h, 100 μM / ×10⁻⁶ cm/s: 40.5

Next, consider the following compound.
Would you kindly share the measured Papp at 5 h, 100 μM for CC(C)Oc1ccc(NS(=O)(=O)c2cccc(NC(=O)c3cnccn3)c2)cc1 [AC-M110] ?
3.4

---

Reported half-life at 1 μM by item:
test.method.notes: Metabolic stability in mouse liver microsomes
Type: in vitro ADME
condition.info: CD-1, pH 7.4; mouse liver microsomes, 1 μM, 0.25 mg/mL; read-out: T1/2 - mouse
Give the value, in units of min, as a plain number.

- compound: "COc1ccc(NS(=O)(=O)c2cccc(NC(=O)c3cnccn3)c2)cc1 [AC-R008]"
  val: 3

Next, consider the following compound.
Would you kindly share the measured half-life at 1 μM for CC(C)Oc1ccc(NS(=O)(=O)c2cccc(NC(=O)c3cnccn3)c2)cc1 [AC-M110] ?
2

---

test.method.notes: in vitro
Type: in vitro ADME
condition.info: PAMPA, pH 7.4, PAMPA Papp at pH 7.4
metric: Papp at 5 h, 100 μM (×10⁻⁶ cm/s)
Give the value, in units of ×10⁻⁶ cm/s, as a plain number.

Would you kindly share the measured Papp at 5 h, 100 μM for COc1ccc(NS(=O)(=O)c2cccc(NC(=O)c3cnccn3)c2)cc1 [AC-R008] ?
92

---

Reported Papp at 5 h, 100 μM by item:
test.method.notes: in vitro
Type: in vitro ADME
condition.info: PAMPA, pH 7.4, PAMPA pH 7,4 Papp - lower
Give the value, in units of ×10⁻⁶ cm/s, as a plain number.

- structure: "COc1ccc(NS(=O)(=O)c2cccc(NC(=O)c3cnccn3)c2)cc1"
  value.unit: "×10⁻⁶ cm/s"
  Papp at 5 h, 100 μM: 92

Next, consider the following compound.
Would you kindly share the measured Papp at 5 h, 100 μM for "CC(C)Oc1ccc(NS(=O)(=O)c2cccc(NC(=O)c3cnccn3)c2)cc1" ?
9.1

---

Reported logD at 90 min by item:
test.method.notes: Lipophilicity assay (LogD at pH 7.4), shake flask
Assay type: physicochemical
condition.info: pH 7.4, n-octanol/phosphate buffer
Please respond with just the number, no unit label.

- structure: "COc1ccc(NS(=O)(=O)c2cccc(NC(=O)c3cnccn3)c2)cc1"
  logD at 90 min: 2.5

Next, consider the following compound.
Would you kindly share the measured logD at 90 min for "CC(C)Oc1ccc(NS(=O)(=O)c2cccc(NC(=O)c3cnccn3)c2)cc1" ?
3

---

test.method.notes: Host cell cytotoxicity in the image-based assay (total host cells)
condition.info: rat, H9c2 rat cardiomyoblasts (infected with T. cruzi), 72 h treatment
Reported CC50 at 72 h by item:
Quick note: number first, unit second.

- molecule: "CC(C)Oc1ccc(NS(=O)(=O)c2cccc(NC(=O)c3cnccn3)c2)cc1 [AC-M110]"
  CC50 at 72 h: "63 µM"
- molecule: "CC(C)Oc1ccc(NS(=O)(=O)c2cccc(NC(=O)c3cc(F)cc(F)c3)c2)cc1 [AC-M109]"
  CC50 at 72 h: "12 µM"

Next, consider the following molecule.
Would you kindly share the measured CC50 at 72 h for COc1ccc(NS(=O)(=O)c2cccc(NC(=O)c3cnccn3)c2)cc1 [AC-R008] ?
99 µM

---

test.method.notes: Metabolic stability in mouse liver microsomes
Format: in vitro ADME
condition.info: mouse, extrapolated to the whole liver
metric: CL int. hep. (mL/min/kg)
Give the value, in units of mL/min/kg, as a plain number.

Would you kindly share the measured CL int. hep. for CC(C)Oc1ccc(NS(=O)(=O)c2cccc(NC(=O)c3cnccn3)c2)cc1 [AC-M110] ?
1370

---

test.method.notes: in vitro
Type: in vitro ADME
condition.info: PAMPA, pH 7.4, PAMPA pH 7,4 Papp - upper
Reported Papp at 5 h, 100 μM by item:
Give the value, in units of ×10⁻⁶ cm/s, as a plain number.

- structure: "CC(C)Oc1ccc(NS(=O)(=O)c2cccc(NC(=O)c3cnccn3)c2)cc1"
  val: 9.6

Next, consider the following compound.
Would you kindly share the measured Papp at 5 h, 100 μM for "COc1ccc(NS(=O)(=O)c2cccc(NC(=O)c3cnccn3)c2)cc1" ?
86

---

test.method.notes: Metabolic stability in human liver microsomes
Type: in vitro ADME
condition.info: pooled liver microsomes, pH 7.4; human liver microsomes, 1 μM, 0.25 mg/mL; read-out: T1/2 human
Experimental: The in vitro metabolic stability of the compound was evaluated in pooled human liver microsomes (HLM, 20 mg/mL), Sprague-Dawley rat liver microsomes (RLM, 20 mg/mL), and CD-1 mouse liver microsomes (MLM, 20 mg/mL), all purchased from GIBCO (Thermo Fisher Scientific). NADPH regenerating system (GentestTM) was prepared in potassium phosphate buffer (100 mM, pH 7.4). […]
Reported half-life at 1 μM by item:
Give the value, in units of min, as a plain number.

- compound: "CC(C)Oc1ccc(NS(=O)(=O)c2cccc(NC(=O)c3cnccn3)c2)cc1 [AC-M110]"
  val: 6

Would you kindly share the measured half-life at 1 μM for COc1ccc(NS(=O)(=O)c2cccc(NC(=O)c3cnccn3)c2)cc1 [AC-R008] ?
7
